Reference for the values: ChEMBL document CHEMBL1149678

Assayed target: Retinoic acid receptor RXR-alpha (Homo sapiens, UniProt P19793)
Sequence (P19793 whole entry): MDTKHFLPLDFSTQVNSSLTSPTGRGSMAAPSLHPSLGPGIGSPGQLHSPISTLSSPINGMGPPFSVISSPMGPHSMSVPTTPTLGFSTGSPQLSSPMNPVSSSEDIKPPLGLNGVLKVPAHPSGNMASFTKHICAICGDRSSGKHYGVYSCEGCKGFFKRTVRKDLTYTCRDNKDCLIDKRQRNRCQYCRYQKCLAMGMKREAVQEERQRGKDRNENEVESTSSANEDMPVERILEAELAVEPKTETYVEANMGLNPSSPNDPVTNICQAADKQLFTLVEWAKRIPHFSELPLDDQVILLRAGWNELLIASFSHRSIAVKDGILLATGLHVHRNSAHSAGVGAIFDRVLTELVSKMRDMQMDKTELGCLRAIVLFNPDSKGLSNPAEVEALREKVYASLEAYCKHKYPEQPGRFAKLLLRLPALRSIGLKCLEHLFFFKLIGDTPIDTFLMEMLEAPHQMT
Protocol: Antagonist activity at human RXRalpha expressed in […] cells assessed as inhibition of 9-cis-retinoic acid-induced transactivation
Type: functional, cell-based, HEK293
Measured quantity: IC50 (nM)
Response body: numeric value in nM, unit text excluded.

Example entries and their recorded answers appear below.
Compound smiles | Measured quantity | Measurement
CNC(=O)Nc1ccc2c(c1)N=C(c1ccc(C(=O)O)cc1)c1cc3c(cc1N2C)C(C)(C)CCC3(C)C | IC50 | 15000
CCCN1c2ccc(NC(=O)Cc3ccc(F)cc3)cc2N=C(c2ccc(C(=O)O)cc2)c2cc3c(cc21)C(C)(C)CCC3(C)C | IC50 | 3100
CCCN1c2ccc(NS(=O)(=O)c3ccc(F)cc3)cc2N=C(c2ccc(C(=O)O)cc2)c2cc3c(cc21)C(C)(C)CCC3(C)C | IC50 | 130

Specify reported IC50 for the compound shown: `CCCNC(=O)Nc1ccc2c(c1)N=C(c1ccc(C(=O)O)cc1)c1cc3c(cc1N2C)C(C)(C)CCC3(C)C`
6200

Report IC50, nothing else, for this compound: `CCS(=O)(=O)Nc1ccc2c(c1)N=C(c1ccc(C(=O)O)cc1)c1cc3c(cc1N2C)C(C)(C)CCC3(C)C`
840

Could you please provide reported IC50 for `CN1c2ccc(NC(=O)Cc3ccc(F)cc3)cc2N=C(c2ccc(C(=O)O)cc2)c2cc3c(cc21)C(C)(C)CCC3(C)C` ? Thanks!
880
